- system_name: human ether-à-go-go-related gene (hERG) potassium channel (human)
- assay_text: primary screen, population patch clamp on CHO cells stably expressing hERG; higher = less effect of the substance
Out of some 310,000 compounds screened, about 14,000 (4.5%) showed an effect of 50% or more. Effects have a minus sign here. This excerpt belongs to a sample that is enriched for strong results.
measured_metric: hERG current change (%, negative = inhibition) at 10uM

Item "CC(=O)N(Cc1ccc(Br)cc1)c1cccc(C)c1C" has what recorded hERG current change (%, negative = inhibition) at 10uM?
3.64%

What do you get for "CCOc1ccc(Cc2c(C)[nH]c3ccc(C(=O)O)cc3c2=S)cc1" ?
-9.2%

What do you get for "Cc1ccc(S(=O)(=O)N2CCCC2)cc1C(=O)NCc1ccccc1CN1CCCC1" ?
-52.3%

What do you get for "CCOC(=O)c1sc(NC(=O)c2cc(S(=O)(=O)N3CCOCC3)ccc2C)nc1C" ?
-60.9%

What do you get for CC(=O)NC(CC(=O)Nc1nccs1)c1ccccc1.O=C(O)C(=O)O (stereo not drawn) ?
1.49%

What do you get for "CCCCNC(=O)c1cccc(NC(=O)C(=O)c2ccccc2NC(C)=O)c1" ?
-19.1%

What do you get for "Cc1ccc(C(=O)NCc2ccccc2CN2CCCC2)cc1S(=O)(=O)N1CCOCC1" ?
-61.4%

What do you get for "CC(=O)c1sc(NC(=O)c2cc(S(=O)(=O)N3CCOCC3)ccc2F)nc1C" ?
-1.54%

What do you get for "Cc1ccc(C(=O)NCc2cccnc2)cc1S(=O)(=O)N1CCCCCC1" ?
-65.7%

What do you get for "Cc1cc(C(=O)NCCCN2CCN(c3cc(Cl)ccc3C)CC2)n(-c2ccccc2)n1" ?
-89.2%

What do you get for "COc1cc(OC)cc(C(=O)NNC(=O)CCOc2ccccc2OC)c1" ?
7.89%

What do you get for "O=C(O)c1ccc(NNC(=S)Nc2cc(C(F)(F)F)ccc2Cl)cc1" ?
19.4%

What do you get for "COc1ccc2nc(NC(=O)c3cc(S(=O)(=O)N4CCOCC4)ccc3C)sc2c1" ?
1.72%

What do you get for "Cc1ccc(Oc2ccccc2/C=C/C(=O)O)cc1" ?
14.6%

What do you get for "COc1cccc(C(=O)NCCS(=O)(=O)NCc2ccc(Cl)cc2)c1" ?
-36.5%

----------
- system_name: human ether-à-go-go-related gene (hERG) potassium channel (human, UniProt Q12809)
- Sequence (Q12809 whole entry, looked up): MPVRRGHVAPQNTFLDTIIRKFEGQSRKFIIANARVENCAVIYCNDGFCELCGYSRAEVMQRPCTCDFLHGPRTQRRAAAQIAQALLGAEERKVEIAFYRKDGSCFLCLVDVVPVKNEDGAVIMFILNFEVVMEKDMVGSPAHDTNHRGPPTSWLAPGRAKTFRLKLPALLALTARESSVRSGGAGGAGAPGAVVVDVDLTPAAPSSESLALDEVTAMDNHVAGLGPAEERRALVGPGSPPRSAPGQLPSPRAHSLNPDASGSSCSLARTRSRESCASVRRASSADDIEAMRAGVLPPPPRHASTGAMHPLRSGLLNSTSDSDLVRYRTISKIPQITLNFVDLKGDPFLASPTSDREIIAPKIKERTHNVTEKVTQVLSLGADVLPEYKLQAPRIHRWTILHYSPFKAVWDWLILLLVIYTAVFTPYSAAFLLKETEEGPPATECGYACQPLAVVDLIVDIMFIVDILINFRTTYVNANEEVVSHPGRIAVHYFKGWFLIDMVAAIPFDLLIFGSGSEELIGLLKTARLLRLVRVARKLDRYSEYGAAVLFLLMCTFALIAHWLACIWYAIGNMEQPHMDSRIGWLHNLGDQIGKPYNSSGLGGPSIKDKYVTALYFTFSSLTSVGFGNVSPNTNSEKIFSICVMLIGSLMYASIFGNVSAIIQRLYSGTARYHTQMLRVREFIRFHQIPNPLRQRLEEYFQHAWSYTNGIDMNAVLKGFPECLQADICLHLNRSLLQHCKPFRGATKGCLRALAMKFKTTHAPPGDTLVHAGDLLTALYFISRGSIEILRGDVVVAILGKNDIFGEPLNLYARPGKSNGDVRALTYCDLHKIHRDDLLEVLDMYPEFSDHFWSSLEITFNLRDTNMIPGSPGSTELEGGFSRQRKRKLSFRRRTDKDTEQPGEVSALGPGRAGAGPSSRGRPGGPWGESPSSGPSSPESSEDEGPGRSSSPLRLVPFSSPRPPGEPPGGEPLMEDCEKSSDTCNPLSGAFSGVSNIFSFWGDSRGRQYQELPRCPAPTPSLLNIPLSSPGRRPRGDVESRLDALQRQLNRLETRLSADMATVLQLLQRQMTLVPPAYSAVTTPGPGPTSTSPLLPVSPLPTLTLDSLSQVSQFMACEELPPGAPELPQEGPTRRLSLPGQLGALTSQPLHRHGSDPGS
- assay_text: primary screen, population patch clamp on CHO cells stably expressing hERG; higher = less effect of the substance
Out of some 310,000 compounds screened, about 14,000 (4.5%) showed an effect of 50% or more. The effect is printed as a negative number. This is one part of a sample in which strong results are shown more often than they occur.
measured_metric: hERG current change (%, negative = inhibition) at 10uM (%)
Kindly provide the numeric value in % only, without the unit symbol.

Item "CCOc1cc(NC(=O)c2ccccn2)c(OCC)cc1NC(=O)c1ccc(C)cc1" has what recorded hERG current change (%, negative = inhibition) at 10uM?
-13.7

What do you get for "CC(C)CCNC(=O)C1CCN(S(=O)(=O)c2ccc(-n3cnnn3)cc2)CC1" ?
-37.6

What do you get for "COc1ccc(CN2CCN(C(=O)c3ccc(F)cc3)CC2)c(OC)c1.O=C(O)C(=O)O" ?
-44.3

What do you get for COC1CCCN(Cc2c(C(=O)N3CCc4ccccc4C3)nc3ccc(Cl)cn23)C1 (centres unmarked) ?
-35.9

What do you get for "CC(=O)Nc1ccc(S(=O)(=O)N2CCC(C(=O)NCCc3ccc(Cl)cc3)CC2)cc1" ?
5.7

What do you get for "CCC(=O)NN1CCN(c2ccncc2S(=O)(=O)N2CCCCC2)CC1" ?
5.14

What do you get for "COc1ccc(CN2CCSCC2)cc1O" ?
14.4

What do you get for "COc1ccc(CN2CCN(Cc3ccco3)CC2)c(OC)c1.O=C(O)C(=O)O" ?
-46.4

What do you get for "COc1cc(CN2CCN(c3ccccc3F)CC2)c([N+](=O)[O-])cc1OC" ?
-27.4

What do you get for "COc1ccc(CN2CCN(Cc3ccccc3F)CC2)cc1.O=C(O)C(=O)O" ?
-43.2

What do you get for "CCOc1ccc(-n2cnnn2)cc1S(=O)(=O)NCc1ccccc1" ?
-71

----------
I'd appreciate it if you could supply hERG current change (%, negative = inhibition) at 10uM values for the items below.
- system_name: human ether-à-go-go-related gene (hERG) potassium channel (human, UniProt Q12809)
- assay_text: primary screen, population patch clamp on CHO cells stably expressing hERG; higher = less effect of the substance
Among all 310,000 compounds or so, about 14,000 (4.5%) showed an effect of 50% or more. The effect is printed as a negative number. The sample as a whole holds a higher share of strong results than the screen did.
Kindly provide the numeric value in % only, without the unit symbol.

Checklist item: hERG current change (%, negative = inhibition) at 10uM tested on human ether-à-go-go-related gene (hERG) potassium channel (human, UniProt Q12809), entry O=C1CSC(c2ccccn2)N1c1ccc(F)cc1F (stereo not shown) , value?
-0.569

What do you get for "C/C(=N\NC(=O)C1CC1)c1ccc(OC(F)F)cc1" ?
9.94

What do you get for "Cc1ccc(-c2nnc(SCC(=O)N3CCCC3)o2)cc1C" ?
-0.309

What do you get for "CCc1nn2c(=O)cc(COC(=O)c3ccc(SC)cc3OC)nc2s1" ?
-18.7

What do you get for "COc1ccc(S(=O)(=O)NCC(=O)N(CC(=O)NCc2ccccc2)Cc2ccco2)cc1" ?
-17

What do you get for N#CC1=C2SCN(Cc3ccccc3)CN2C(=O)CC1c1cccs1 (stereo not shown) ?
6.44

What do you get for "COc1ccc(CNC(=O)CN(Cc2ccco2)C(=O)CNS(=O)(=O)c2ccccc2)cc1" ?
-38.7

----------
- system_name: human ether-à-go-go-related gene (hERG) potassium channel (human, UniProt Q12809);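 further: peak tail current of the secondary pulse compared with the same well before compound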
- assay_text: primary screen, population patch clamp on CHO cells stably expressing hERG; higher = less effect of the substance
Among all 310,000 compounds or so, about 14,000 (4.5%) showed an effect of 50% or more. Effects have a minus sign here. What follows is part of a selection rich in strong results, with near analogues and random picks from the rest.
I'd appreciate it if you could supply hERG current change (%, negative = inhibition) at 10uM values for the items below.
Kindly provide the numeric value in % only, without the unit symbol.

Item "C/C(=N\OC(=O)Nc1ccccc1)c1ccc(C)cc1" has what recorded hERG current change (%, negative = inhibition) at 10uM?
-15.9

What do you get for COc1ccc(C(CNC(=O)c2cc(C)on2)N(C)C)cc1 (stereo not drawn) ?
22.1

What do you get for COc1cc(OC)c(OC)cc1CN1CCCC(C(=O)c2sccc2C)C1 (stereo not drawn) ?
-63.4

What do you get for COc1cc(CN2CCCC(C(=O)c3sccc3C)C2)cc(OC)c1O (stereo not drawn) ?
-47.8

What do you get for "CCOc1ccc(-c2nnc(-c3ccccc3)n2-c2ccccc2)cc1" ?
-18.8

What do you get for "Cc1ccc(C2=NN(CC(=O)NCc3ccccn3)C(=O)CC2)cc1" ?
-11.6

What do you get for O=C(NCc1ccncc1)C(=O)C1C(=O)Nc2ccccc21 (stereo not drawn) ?
11.6

What do you get for O=C1CC(c2ccco2)CC(O)=C1C=NCCO (stereo not drawn) ?
7.61

What do you get for "Cc1cc(-c2ccccc2C(=O)O)on1" ?
17.6

----------
- system_name: human ether-à-go-go-related gene (hERG) potassium channel (human, UniProt Q12809);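 further: peak tail current of the secondary pulse compared with the same well before compound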
- assay_text: primary screen, population patch clamp on CHO cells stably expressing hERG; higher = less effect of the substance
Hit rate of the full screen: of about 310,000 compounds, about 14,000 (4.5%) showed an effect of 50% or more. The effect is printed as a negative number. What follows is part of a selection rich in strong results, with near analogues and random picks from the rest.
measured_metric: hERG current change (%, negative = inhibition) at 10uM (%)
Kindly provide the numeric value in % only, without the unit symbol.

Item "CN(C)CCCN(C(=O)CCSc1ccccc1)c1nc2cc3c(cc2s1)OCO3.Cl" has what recorded hERG current change (%, negative = inhibition) at 10uM?
-48.2

What do you get for "CN(C)CCCN(C(=O)c1nc2ccccc2s1)c1nc2ccc(F)cc2s1.Cl" ?
4.17

What do you get for "CN(C)CCCN(C(=O)c1sc2ccccc2c1Cl)c1nc2ccc(F)cc2s1.Cl" ?
-19.7

----------
I'd appreciate it if you could supply hERG current change (%, negative = inhibition) at 10uM values for the items below.
- system_name: human ether-à-go-go-related gene (hERG) potassium channel (human, UniProt Q12809);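 further: peak tail current of the secondary pulse compared with the same well before compound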
- assay_text: primary screen, population patch clamp on CHO cells stably expressing hERG; higher = less effect of the substance
In all, about 310,000 compounds went through this assay and about 14,000 (4.5%) showed an effect of 50% or more. The effect is printed as a negative number. The entries come from a sample that favours strong results as a whole.
Kindly provide the numeric value in % only, without the unit symbol.

Checklist item: hERG current change (%, negative = inhibition) at 10uM tested on human ether-à-go-go-related gene (hERG) potassium channel (human, UniProt Q12809), entry CC(NC(=O)c1cc(-c2ccccc2)nc2ccccc12)C1CCCO1 (stereo not shown) , value?;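 further: peak tail current of the secondary pulse compared with the same well before compound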
-11

What do you get for "CC1(C)OCC(COC(=O)Nc2cccnc2)([N+](=O)[O-])CO1" ?
23.8

What do you get for COc1ccc(C(=O)NCCc2ccc(Cl)cc2)cc1S(=O)(=O)N1CCCCC1C (stereo not shown) ?
-52.3

What do you get for "CC1CCN(C(=O)CNC(=O)Cc2ccccc2)CC1" ?
9.53

What do you get for CC1CCCCC1N(C)C1CCN(C(=O)CNC(=O)/C=C/c2cccc(Cl)c2)CC1 (stereo not shown) ?
-73.6

What do you get for CCOc1ccccc1/C=C/C(=O)NCC(=O)N1CCC(N(C)C2CCCCC2C)CC1 (stereo not shown) ?
-54.7

What do you get for COc1ccc(C(CNC(=O)c2ccc(OC)c(S(=O)(=O)N3CCCC3)c2)N2CCCC2)cc1 (stereo not shown) ?
9.12
